Target entity: hOX1R (Homo sapiens, UniProt O43613)
Construct: expressed in transfected cells
Sequence (O43613 whole entry): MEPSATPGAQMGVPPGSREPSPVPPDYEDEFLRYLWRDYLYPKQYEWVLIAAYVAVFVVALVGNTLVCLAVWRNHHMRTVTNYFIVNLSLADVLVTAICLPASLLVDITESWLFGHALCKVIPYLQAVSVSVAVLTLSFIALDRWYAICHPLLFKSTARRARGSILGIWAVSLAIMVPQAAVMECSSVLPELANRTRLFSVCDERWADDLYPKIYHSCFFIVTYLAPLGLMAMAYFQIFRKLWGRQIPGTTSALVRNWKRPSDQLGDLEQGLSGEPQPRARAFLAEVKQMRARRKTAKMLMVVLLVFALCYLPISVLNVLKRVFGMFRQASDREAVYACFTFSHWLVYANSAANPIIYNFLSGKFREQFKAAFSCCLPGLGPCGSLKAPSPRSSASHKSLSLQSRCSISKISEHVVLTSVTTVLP
Assay summary: In vitro test of OX1R: calcium signal change in cells detected with FLIPR
Assay type: cell-based
Measurement context: HEK293-OX1 stable cell strain, Fluo-4 AM calcium signal, Orexin A at EC70; read-out: IC50 detected in FLIPR, hOX1R
Endpoint label: IC50 (nM)
# unit: nM | format: bare number

As a guide, the following entries are already answered.
>>> df
                                   molecule  endpoint_label  test_value
0  Cc1ccc(-c2ncccn2)c(C(=O)N2C3CCC(COc4ncc(Cl)cc4F)C2CC3)c1 (stereo not shown)            IC50         113
1  Cc1ccc(-c2ncccn2)c(C(=O)N2C[C@H](COc3ccc(F)cn3)CC[C@H]2C)c1 [MK6096, reference compound]            IC50          36
2  Cc1ccc(-c2ncccn2)c(C(=O)N2C3CCC(COc4ccc(F)cn4)C2CC3)c1 (single isomer, unassigned) [Example 8]            IC50        4260

Alright, here's another molecule for you.
Entry Cc1ccc(-c2ncccn2)c(C(=O)N2C3CCC(COc4ccc(F)cn4)C2CC3)c1 (single isomer, unassigned) [Example 7] : reported IC50 = ? 1270
